# TEST METHOD NOTES: A549 lung cancer cell viability effects, profiling panel, resazurin fluorescence, 24 h, PK04 Diversity Set (AID 1171); note: test concentration not given here
# EXPERIMENTAL CONTEXT: higher = more signal, called active from +8 up or from −8 down
So basically every entry gets a class from its z-score, ranges being band A (below -0.7), band B (-0.7 to below 0.3), band C (0.3 or more)

O=C1OCCC/C=C\[C@H]2OC34C=CCN(Cn5nnc6ccccc65)C(=O)[C@H]3N(CCO)C(=O)[C@@H]4C12 (stereo not given in full)    band B
COC(=O)[C@@]1(Cc2ccc(OC)cc2)[C@H]2c3cc(C(=O)N4CCCC4)n(Cc4ccccc4)c3C[C@H]2CN1C(=O)c1ccccc1    band A
CCC(CC)C(O)C1C=CC2C(=O)N(C)C(=O)C2N1Nc1ccccc1 (stereo not given)    band C
COC(=O)[C@@]1(Cc2ccc(OC)cc2)[C@H]2c3cc(C(=O)N4CCCC4)n(Cc4ccsc4Br)c3C[C@H]2CN1C(=O)c1ccccc1    band A
COC(=O)c1c(CC[C@@H](CO)NC(=O)N[C@@H](C)Cn2cc(C3(O)CCCCC3)nn2)oc(C(C)=O)c1C(=O)OC    band A
CCCCCN1CC=CC23O[C@@H]4/C=C\CCCOC(=O)C4[C@H]2C(=O)N(CCCO)[C@@H]3C1=O (stereo not given in full)    band C

# input // return the class label for C=CC[C@@]1(C(=O)NCc2ccccc2)N=C(c2ccc(OCCCO)cc2)O[C@@H]1c1ccccc1N=[N+]=[N-]
# output band B

# input Could you do the same for CCOC(=O)C=Cc1cc([N+](=O)[O-])ccc1O , please?
# output band C

# input Could you do the same for COCC(=C=CC[C@H](O)c1ccccc1OCCO)C[C@H](O)c1cc(Cl)cc(Cl)c1O , please?
# output band A

# input Could you do the same for O=C1c2ccccc2[C@@]2(Cc3ccccc3N(CC(F)(F)F)C2=O)[C@H](c2ccc(CO)cc2)N1Cc1ccccc1Cl , please?
# output band B

---

# TEST METHOD NOTES: small-molecule binders of probe aNOTCH3, primary screen, biochemical, small-molecule microarray, 635/667 nm fluorescence (AID 1120);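 note: probe is a biotin-tagged antibody raised against NOTCH3 rather than NOTCH3 protein; score merges spot fluorescence near 667 nm with spot signal to noise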
# EXPERIMENTAL CONTEXT: higher = more signal
QUANTITY: composite z-score
Write no unit; give the number alone.

Here are 5 compounds together with their reported answers.
O=C1NC(=O)C2C1C=CC(C(O)c1cccc3ccccc13)N2Nc1ccccn1 (centres undefined)    0.138
O=C1OCCC/C=C\[C@H]2OC34C=CCN(Cn5nnc6ccccc65)C(=O)[C@H]3N(CCCCCCO)C(=O)[C@@H]4C12 (some centres undefined)    -0.262
NC(=O)[C@@H]1[C@H]2C(=O)O[C@H](c3ccccc3)[C@H](c3ccccc3)N2[C@H](c2ccc(O)cc2)[C@@]12C(=O)Nc1ccc(C#CC3(O)CCCCCC3)cc12    -0.15
COCCCNC(=O)[C@@]1(Cc2ccccc2N=[N+]=[N-])N=C(c2ccc(OCCCO)cc2)O[C@H]1c1ccccc1N=[N+]=[N-]    0.386
CN(C)C(=O)[C@@]1(Cc2ccccc2CN=[N+]=[N-])N=C(c2ccc(OCCCO)cc2)O[C@H]1c1ccccc1    0.103

# input Dear colleague, I am looking for the recorded composite z-score of the following compound: COc1ccc(NN2C(C(O)c3ccc([N+](=O)[O-])cc3)C=CC3C(=O)N(C4CCCCC4)C(=O)C32)cc1 (centres undefined)
# output 0.178

# input Could you do the same for COc1ccc(CCNC(=O)[C@@]2(Sc3ccc(C)cc3)CC(=O)N(C3CCCCC3)[C@@H]2c2ccc(CO)cc2I)cc1 , please?
# output -0.0111

# input Could you do the same for [N-]=[N+]=Nc1ccccc1C[C@]1(C(N)=O)N=C(c2ccc(OCCCO)cc2)O[C@H]1c1ccccc1 , please?
# output 0.0556

# input Could you do the same for COc1cc2c(cc1O)C=[N+](Cc1cccc(OC(F)(F)F)c1)CC2 , please?
# output -0.0879

---

The entries below are paired with their reported composite z-score.
# System: Chordin-like protein 2 (CHRDL2)
# TEST METHOD NOTES: CHRDL2 small-molecule binders, primary screen, biochemical, small-molecule microarray, 635 nm fluorescence (AID 1126);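 note: printed compound slides probed with Chrdl2 protein at 4 µg/mL for 1 h at 4 C; score merges 667 nm emission intensity with signal to noise over three replicate slides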
# EXPERIMENTAL CONTEXT: small-molecule microarray binding, fluorescence 635 nm; higher = more signal
Write no unit; give the number alone.

COC(=O)[C@@]1(Cc2ccc(OC)cc2)[C@H]2c3cc(C(=O)N(C)C)n(CCN4CNCC4=O)c3C[C@H]2CN1C(=O)c1ccccc1    -0.386
[N-]=[N+]=NCc1ccccc1C[C@]1(C(=O)N2CCOCC2)N=C(c2ccc(OCCCO)cc2)O[C@H]1c1ccccc1N=[N+]=[N-]    0.519
CCOC(=O)C1=CCC(c2ccc(C)cc2)N(S(=O)(=O)c2ccc(C)cc2)C1 (stereo not given)    0.137
C=C/C=C/[C@H]1C(=C)CN([C@@H](Cc2ccccc2)C(=O)OC)[C@@H]1[C@H](O)Cc1ccccc1    -0.0454

# input Dear colleague, I am looking for the recorded composite z-score of the following compound: COc1ccc(C(=O)Nc2ccc(CN3C(=O)[C@@]4(O[C@@H](CC(=O)N5CCC[C@H]5CO)[C@H]([Si](C)(C)c5ccc(OC)cc5)[C@H]4C)c4ccccc43)cc2)cc1
# output 0.989

---

# TEST METHOD NOTES: MM1S myeloma cell viability, profiling panel, resazurin fluorescence, basal, 24 h, PK04 Diversity Set (AID 1174);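 note: MM1S multiple myeloma cell line; test concentration not given here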
# EXPERIMENTAL CONTEXT: higher = more signal, called active from +8 up or from −8 down
Cut-off -0.6 on z-score, inclusive. At or above means 1 (yes); below means 0 (no).

COCCOC(=O)N1C(=O)[C@@]2(c3cc(C#CCNC(N)=O)ccc31)[C@H](C(=O)NC[C@H](O)c1ccccc1)[C@H]1C(=O)O[C@H](c3ccccc3)[C@H](c3ccccc3)N1[C@@H]2c1ccccc1OCCO    1 (yes)
C=CCNC(=O)[C@H]1[C@@H]2C(=O)O[C@@H](c3ccccc3)[C@@H](c3ccccc3)N2[C@@H](c2ccc(OCCO)cc2)[C@]12C(=O)N(C(=O)OCCOC)c1ccccc12    0 (no)
O=C1NCC(=O)N2[C@@H]1C[C@@H](C(=O)O)[C@H]2c1cccc(OCCO)c1    1 (yes)
Cc1ccc(S[C@]2(C(=O)NC3CC3)CC(=O)N(C3Cc4ccccc4C3)[C@@H]2c2ccc(CO)cc2)cc1    1 (yes)
COC(=O)[C@@]1(Cc2ccc(F)cc2)[C@H]2c3cc(C(=O)N(C)C)n(Cc4ccc(S(C)(=O)=O)cc4)c3C[C@H]2CN1C(=O)c1ccccc1    1 (yes)

# input Kindly determine if z-score recorded for COc1ccc([Si](C)(C)[C@H]2[C@H](CCO)O[C@@]3(C(=O)N(C)c4c(Br)cc(C)cc43)[C@@H]2C)cc1 is above or exactly -0.6.
# output 0 (no)

---

# TEST TARGET: NADPH oxidase 2 (Homo sapiens)
# TEST METHOD NOTES: NOX2-dependent H2O2 signal modulators, primary screen, NOX inhibitor project, cell-based, HEK293-NOX2, PMA-stimulated, Amplex Red fluorescence (AID 1159); note: test concentration not given here
# EXPERIMENTAL CONTEXT: 45 min, higher = more signal, called active from +8 up or from −8 down
QUANTITY: z-score
Write no unit; give the number alone.

C=C(CCCC)C(=O)CC[C@H](OC(=O)c1cccnc1)c1ccccc1OCCO    -1.2

Consider now this further compound.
# input Dear colleague, I am looking for the recorded z-score of the following compound: CCCCCN1CC=CC23O[C@@H]4/C=C\CCCOC(=O)C4[C@H]2C(=O)N(C(CO)C(C)C)[C@@H]3C1=O (stereo partly specified)
# output 1.59

---

# TEST METHOD NOTES: PSAC antagonists in infected red cells, primary screen, cell-based, P. falciparum Indochina, OD700, 18 h (AID 1157)
# EXPERIMENTAL CONTEXT: P. falciparum Indochina infected erythrocytes, osmotic lysis OD700, 18 h, called active from +8 up or from −8 down
Calls of active or inactive are those of the source.
Lab note: assign the record to one of T (active), F (inactive)

O=C1O[C@@H](c2ccccc2)[C@@H](c2ccccc2)N2[C@@H](c3ccccc3OCCO)[C@]3(C(=O)Nc4ccc(C#CC5=CCCCC5)cc43)[C@@H](C(=O)Nc3nc4ccccc4s3)[C@H]12    F
O=C1OCCC/C=C\[C@H]2OC34C=CCN(Cn5nnc6ccccc65)C(=O)[C@H]3N(CCO)C(=O)[C@@H]4C12 (some centres not stated)    F

# input Assay result, entry CCc1oc(CC[C@@H](CO)NC(=O)NCCn2cc(C3(O)CCCCC3)nn2)c(C(=O)OC)c1C(=O)OC — outcome?
# output F

# input Could you do the same for CC(C)OC(=O)C=C1C[C@@H](c2ccccc2C(F)(F)F)O[C@@H](c2ccccc2C(F)(F)F)O1 , please?
# output F

# input Could you do the same for OC([C@@H]1CC(c2ccccc2)=NO1)[C@H]1CC(c2ccccc2)=NO1 (some centres not stated) , please?
# output F

# input Could you do the same for CC1CC/C=C\[C@H]2OC34C=CCN(Cn5nnc6ccccc65)C(=O)[C@H]3N(C(CO)C(C)C)C(=O)[C@@H]4C2C(=O)O1 (some centres not stated) , please?
# output F
